Where do the numbers come from? From the supplement of paper PMC7724964.

Kindly state phage ELISA signal ratio for each of the entries shown.
assay target: T1, WDR74 1-387 WD40 (domain begin residue: 1, domain end residue: 387), Q6RFH5
T1 chain: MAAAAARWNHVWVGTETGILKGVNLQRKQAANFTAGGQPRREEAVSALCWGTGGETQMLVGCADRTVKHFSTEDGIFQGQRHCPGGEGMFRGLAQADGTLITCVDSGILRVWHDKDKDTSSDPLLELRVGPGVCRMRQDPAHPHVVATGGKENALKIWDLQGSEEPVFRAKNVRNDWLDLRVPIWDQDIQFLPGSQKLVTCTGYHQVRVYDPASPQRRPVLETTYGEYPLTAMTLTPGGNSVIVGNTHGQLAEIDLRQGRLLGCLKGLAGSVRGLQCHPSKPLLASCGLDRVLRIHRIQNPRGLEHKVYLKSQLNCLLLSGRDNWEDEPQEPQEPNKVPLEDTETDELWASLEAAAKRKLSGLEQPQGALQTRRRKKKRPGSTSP
experiment: phage ELISA signal ratio (GST-PRM binding over GST background); higher = stronger binding of peptide-phage to the PRM

# input binder: `PALSDVWDSIPLEFAW` ; wanted: its phage ELISA signal ratio
6.43

# input binder: `DFMSDMFLQQLDTVGL` ; wanted: its phage ELISA signal ratio
7.8

# input binder: `FDSYWEAAFDQLQMAE` ; wanted: its phage ELISA signal ratio
7.17

# input binder: `WHWPELQDLMSIGMDE` ; wanted: its phage ELISA signal ratio
2.99

# input binder: `DWFSSIIEAERQPVAD` ; wanted: its phage ELISA signal ratio
5.4

# input binder: `WEAIWDDMLTVQMPMA` ; wanted: its phage ELISA signal ratio
5

# input binder: `DMWAMWHEWVEQEPQD` ; wanted: its phage ELISA signal ratio
2.88

# input binder: `QIWSLWVEGMMYQPDN` ; wanted: its phage ELISA signal ratio
2.75
